Assay: Permeability of the compound by PAMPA method
Format: ADME
Conditions: read-out: permeability
Reported Endpoint: Papp (×10⁻⁶ cm/s)

| Smiles Text | Meas Value |
| --- | --- |
| Nc1ncnc2c1ncn2[C@@H]1O[C@H](CSCCNCc2cccc(Br)c2)[C@@H](O)[C@H]1O | 0.3 |

----------
Below is a list of entries, each paired with its recorded inhibition value.
Target: Protein arginine N-methyltransferase 6 (Homo sapiens, UniProt Q96LA8)
Sequence (Q96LA8 whole entry, looked up): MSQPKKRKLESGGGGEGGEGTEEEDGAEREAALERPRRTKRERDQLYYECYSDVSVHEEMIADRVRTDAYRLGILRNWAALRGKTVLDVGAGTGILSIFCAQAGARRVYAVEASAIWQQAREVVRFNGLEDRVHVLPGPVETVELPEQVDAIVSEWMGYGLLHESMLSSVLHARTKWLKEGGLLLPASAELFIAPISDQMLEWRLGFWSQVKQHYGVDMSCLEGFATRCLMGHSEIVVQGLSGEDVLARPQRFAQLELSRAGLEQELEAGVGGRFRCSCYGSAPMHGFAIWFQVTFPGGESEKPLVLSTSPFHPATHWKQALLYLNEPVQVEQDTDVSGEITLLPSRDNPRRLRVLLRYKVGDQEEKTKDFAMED
Assay: Inhibition of human PRMT6 using GST-GAR as substrate and SAM as cofactor at 10 uM by radiometric HotSpot assay relative to control
Reported Endpoint: inhibition

| Smiles Text | Meas Value |
| --- | --- |
| Nc1ncnc2c1ncn2[C@@H]1O[C@H](CSCCCNCc2cccc(-c3ccc(Cl)cc3)c2)[C@@H](O)[C@H]1O | 50% |
| Nc1ncnc2c1ncn2[C@@H]1O[C@H](CSCCOc2ccc(-c3ccc(F)cc3)cc2)[C@@H](O)[C@H]1O | < 50% |
| Nc1ncnc2c1ncn2[C@@H]1O[C@H](CSCCCNCc2cccc(-c3ccc(C(F)(F)F)cc3)c2)[C@@H](O)[C@H]1O | 50% |
| Nc1ncnc2c1ncn2[C@@H]1O[C@H](CSCCOc2ccc(-c3ccc(F)c(O)c3)cc2)[C@@H](O)[C@H]1O | < 50% |
| N=C(NCCSC[C@H]1O[C@@H](n2cnc3c(N)ncnc32)[C@H](O)[C@@H]1O)Nc1cccc(-c2ccc(C(F)(F)F)cc2)c1 | > 90% |
| N=C(NCCCSC[C@H]1O[C@@H](n2cnc3c(N)ncnc32)[C@H](O)[C@@H]1O)Nc1cccc(-c2n[nH]cc2C(F)(F)F)c1 | > 90% |

----------
Target: Protein arginine N-methyltransferase 3 (Homo sapiens)
Test: Inhibition of PRMT3 (unknown origin) incubated for 1 hr in presence of 3H-SAM by topcount plate reader analysis
Sequence (O60678 whole entry): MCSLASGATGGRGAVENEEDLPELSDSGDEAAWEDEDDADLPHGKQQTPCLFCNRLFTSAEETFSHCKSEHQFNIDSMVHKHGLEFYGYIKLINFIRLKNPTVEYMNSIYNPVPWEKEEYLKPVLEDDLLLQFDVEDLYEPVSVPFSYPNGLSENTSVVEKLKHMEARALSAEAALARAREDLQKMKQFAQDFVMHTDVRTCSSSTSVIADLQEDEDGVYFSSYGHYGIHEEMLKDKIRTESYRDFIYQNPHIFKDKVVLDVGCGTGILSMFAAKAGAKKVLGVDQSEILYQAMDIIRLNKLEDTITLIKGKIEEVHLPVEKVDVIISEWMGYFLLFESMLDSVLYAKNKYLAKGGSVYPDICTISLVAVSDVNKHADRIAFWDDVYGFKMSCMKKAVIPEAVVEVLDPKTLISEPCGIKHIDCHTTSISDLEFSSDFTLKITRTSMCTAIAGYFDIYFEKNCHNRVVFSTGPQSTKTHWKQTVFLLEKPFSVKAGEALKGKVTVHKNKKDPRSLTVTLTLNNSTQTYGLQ
Reported Endpoint: IC50 (nM)

| Smiles Text | Target Entity | Meas Value |
| --- | --- | --- |
| Nc1ncnc2c1ncn2[C@@H]1O[C@H](CSCCCCNCc2cccc(-c3ccc(Cl)cc3)c2)[C@@H](O)[C@H]1O | Protein arginine N-methyltransferase 3 (Homo sapiens) | 1600 |

----------
Molecular target: Protein arginine N-methyltransferase 3 (Homo sapiens, UniProt O60678)
Assay: Inhibition of human PRMT3 using H4-21peptide as substrate at 10 uM incubated for 10 mins by fluorescence based analysis relative to control
Sequence (O60678 2-531 limits assumed): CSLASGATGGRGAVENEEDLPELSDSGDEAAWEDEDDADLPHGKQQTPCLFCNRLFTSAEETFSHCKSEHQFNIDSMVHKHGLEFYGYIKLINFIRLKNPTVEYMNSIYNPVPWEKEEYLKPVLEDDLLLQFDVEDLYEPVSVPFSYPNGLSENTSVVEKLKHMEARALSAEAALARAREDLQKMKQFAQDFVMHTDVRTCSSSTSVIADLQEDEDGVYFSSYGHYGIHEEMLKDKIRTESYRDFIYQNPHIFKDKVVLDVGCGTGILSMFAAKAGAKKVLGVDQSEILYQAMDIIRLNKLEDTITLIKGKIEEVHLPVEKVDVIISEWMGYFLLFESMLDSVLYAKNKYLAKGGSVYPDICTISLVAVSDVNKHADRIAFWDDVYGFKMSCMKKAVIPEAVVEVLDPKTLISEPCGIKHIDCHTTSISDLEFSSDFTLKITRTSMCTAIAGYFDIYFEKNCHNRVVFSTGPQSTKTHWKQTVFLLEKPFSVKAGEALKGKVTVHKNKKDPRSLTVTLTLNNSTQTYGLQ
Reported inhibition is given for each of the following compounds.
Reported Endpoint: inhibition

| Smiles Text | Reported Endpoint | Meas Value |
| --- | --- | --- |
| Nc1ncnc2c1ncn2[C@@H]1O[C@H](CSCCNCc2cccc(-c3ccoc3)c2)[C@@H](O)[C@H]1O | inhibition | < 30% |
| Nc1ncnc2c1ncn2[C@@H]1O[C@H](CSCCNC(=O)NCc2ccc(-c3ccccc3O)cc2)[C@@H](O)[C@H]1O | inhibition | 3% |
| COc1cc2nc(-c3ccc(Cl)cc3)nc(NCCSC[C@H]3O[C@@H](n4cnc5c(N)ncnc54)[C@H](O)[C@@H]3O)c2cc1OC | inhibition | < 30% |
| Nc1ncnc2c1ncn2[C@@H]1O[C@H](CSCCOc2ccc(-c3cccc(O)c3)cc2)[C@@H](O)[C@H]1O | inhibition | < 30% |
| Nc1ncnc2c1ncn2[C@@H]1O[C@H](CSCCNCc2cccc(-c3ccccc3O)c2)[C@@H](O)[C@H]1O | inhibition | < 30% |
| Nc1ncnc2c1ncn2[C@@H]1O[C@H](CSCCNC(=O)NCc2ccc(F)cc2)[C@@H](O)[C@H]1O | inhibition | > 50% |
| Nc1ncnc2c1ncn2[C@@H]1O[C@H](CSCCOc2ccc(-c3ccc(F)c(O)c3)cc2)[C@@H](O)[C@H]1O | inhibition | < 30% |
| Nc1ncnc2c1ncn2[C@@H]1O[C@H](CSCCNC(=O)Nc2ccc(Cl)cc2)[C@@H](O)[C@H]1O | inhibition | 3% |

----------
Target: Protein arginine N-methyltransferase 8 (Homo sapiens, UniProt Q9NR22)
Sequence (Q9NR22 2-394 limits assumed): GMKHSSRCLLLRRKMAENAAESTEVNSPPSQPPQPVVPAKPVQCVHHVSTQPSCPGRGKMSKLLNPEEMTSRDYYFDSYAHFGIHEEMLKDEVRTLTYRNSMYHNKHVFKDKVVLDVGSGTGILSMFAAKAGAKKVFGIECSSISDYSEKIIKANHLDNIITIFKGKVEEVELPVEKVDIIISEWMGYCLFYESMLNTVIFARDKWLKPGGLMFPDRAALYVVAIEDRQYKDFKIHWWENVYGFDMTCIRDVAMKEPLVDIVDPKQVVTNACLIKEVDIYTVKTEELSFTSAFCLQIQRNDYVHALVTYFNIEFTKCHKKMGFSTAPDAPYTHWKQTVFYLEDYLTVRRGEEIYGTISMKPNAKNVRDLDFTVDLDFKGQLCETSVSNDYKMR
Test: Inhibition of human PRMT8 using Histone H4 as substrate and SAM as cofactor at 10 uM by radiometric HotSpot assay relative to control
Items are presented alongside their recorded inhibition.

| Smiles Text | Target Entity | inhibition |
| --- | --- | --- |
| Nc1ncnc2c1ncn2[C@@H]1O[C@H](CSCCNC(=O)NCc2ccc(-c3cn[nH]c3)cc2)[C@@H](O)[C@H]1O | Protein arginine N-methyltransferase 8 (Homo sapiens, UniProt Q9NR22) | < 30% |
| COc1cc2nc(-c3ccc(F)c(O)c3)nc(NCCSC[C@H]3O[C@@H](n4cnc5c(N)ncnc54)[C@H](O)[C@@H]3O)c2cc1OC | Protein arginine N-methyltransferase 8 (Homo sapiens, UniProt Q9NR22) | < 50% |
| Nc1ncnc2c1ncn2[C@@H]1O[C@H](CSCCCNCc2cccc(-c3cccc4cn[nH]c34)c2)[C@@H](O)[C@H]1O | Protein arginine N-methyltransferase 8 (Homo sapiens, UniProt Q9NR22) | > 50% |
| N=C(NCCCSC[C@H]1O[C@@H](n2cnc3c(N)ncnc32)[C@H](O)[C@@H]1O)Nc1cccc(-c2ccc3c(c2)OCCO3)c1 | Protein arginine N-methyltransferase 8 (Homo sapiens, UniProt Q9NR22) | > 95% |

----------
Target: UniProt Q86X55
Sequence (Q86X55 whole entry): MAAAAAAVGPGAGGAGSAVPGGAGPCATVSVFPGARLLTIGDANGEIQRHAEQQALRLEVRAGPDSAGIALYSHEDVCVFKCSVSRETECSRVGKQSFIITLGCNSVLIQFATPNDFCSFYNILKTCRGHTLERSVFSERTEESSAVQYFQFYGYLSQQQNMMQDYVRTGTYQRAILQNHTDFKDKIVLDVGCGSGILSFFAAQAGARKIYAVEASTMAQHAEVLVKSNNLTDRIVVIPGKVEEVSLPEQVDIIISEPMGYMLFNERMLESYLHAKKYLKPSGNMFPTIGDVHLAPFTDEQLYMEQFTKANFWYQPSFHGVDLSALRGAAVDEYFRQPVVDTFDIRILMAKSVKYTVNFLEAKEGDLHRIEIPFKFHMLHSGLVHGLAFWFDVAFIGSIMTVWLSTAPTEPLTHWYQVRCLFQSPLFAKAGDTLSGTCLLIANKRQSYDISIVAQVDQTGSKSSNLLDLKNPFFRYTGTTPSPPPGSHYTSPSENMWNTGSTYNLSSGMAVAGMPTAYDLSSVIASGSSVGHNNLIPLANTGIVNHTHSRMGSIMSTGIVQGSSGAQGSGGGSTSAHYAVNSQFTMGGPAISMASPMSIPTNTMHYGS
Assay: Inhibition of human PRMT4 using histone H3 as substrate and SAM as cofactor at 10 uM by radiometric HotSpot assay relative to control
Parameter: inhibition. Scope: all listed entries.

| Smiles Text | inhibition |
| --- | --- |
| N=C(NCCCSC[C@H]1O[C@@H](n2cnc3c(N)ncnc32)[C@H](O)[C@@H]1O)NCc1ccccc1 | > 90% |
| N=C(NCCCSC[C@H]1O[C@@H](n2cnc3c(N)ncnc32)[C@H](O)[C@@H]1O)Nc1cccc(-c2cccc([N+](=O)[O-])c2)c1 | > 90% |
| Nc1ncnc2c1ncn2[C@@H]1O[C@H](CSCCCNCc2cccc(-c3ccc(Cl)cc3)c2)[C@@H](O)[C@H]1O | > 90% |
| Nc1ncnc2c1ncn2[C@@H]1O[C@H](CSCCCNCc2cccc(-c3cncnc3)c2)[C@@H](O)[C@H]1O | > 90% |
| Nc1ncnc2c1ncn2[C@@H]1O[C@H](CSCCNC(=O)NCc2ccccc2)[C@@H](O)[C@H]1O | > 90% |
| N=C(NCCCSC[C@H]1O[C@@H](n2cnc3c(N)ncnc32)[C@H](O)[C@@H]1O)Nc1cccc(-c2ccc(F)cc2F)c1 | > 90% |
| N=C(NCCCSC[C@H]1O[C@@H](n2cnc3c(N)ncnc32)[C@H](O)[C@@H]1O)Nc1cccc(Br)c1 | > 90% |
| Nc1ncnc2c1ncn2[C@@H]1O[C@H](CSCCNCc2cccc(-c3ccoc3)c2)[C@@H](O)[C@H]1O | > 90% |

----------
Target: Protein arginine N-methyltransferase 3 (Homo sapiens)
Test: Inhibition of human PRMT3 using H4-21peptide as substrate at 10 uM incubated for 10 mins by fluorescence based analysis relative to control

| Smiles Text | inhibition |
| --- | --- |
| Nc1cccc(-c2cccc(CNCCSC[C@H]3O[C@@H](n4cnc5c(N)ncnc54)[C@H](O)[C@@H]3O)c2)c1 | < 30% |
| Nc1ccc(-c2ccc(CNC(=O)NCCSC[C@H]3O[C@@H](n4cnc5c(N)ncnc54)[C@H](O)[C@@H]3O)cc2)cc1 | 3% |
| Nc1ncnc2c1ncn2[C@@H]1O[C@H](CSCCOc2ccc(-c3ccc(Cl)cc3)cc2)[C@@H](O)[C@H]1O | < 30% |
| Nc1ncnc2c1ncn2[C@@H]1O[C@H](CSCCNC(=O)Nc2ccc(F)cc2)[C@@H](O)[C@H]1O | > 50% |
| N=C(NCCCSC[C@H]1O[C@@H](n2cnc3c(NCCCc4ccccc4)ncnc32)[C@H](O)[C@@H]1O)NC1CCCC1 | < 30% |
| Nc1ncnc2c1ncn2[C@@H]1O[C@H](CSCCNCc2cccc(-c3ccc(O)cc3)c2)[C@@H](O)[C@H]1O | < 30% |
| Nc1ncnc2c1ncn2[C@@H]1O[C@H](CSCCCNCc2cccc(-c3ccoc3)c2)[C@@H](O)[C@H]1O | < 30% |
| Nc1ncnc2c1ncn2[C@@H]1O[C@H](CSCCCNCc2cccc(-c3ccc(O)cc3)c2)[C@@H](O)[C@H]1O | < 30% |
| Nc1ncnc2c1ncn2[C@@H]1O[C@H](CSCCCNCc2cccc(-c3cncnc3)c2)[C@@H](O)[C@H]1O | < 30% |
| COc1cc2nc(-c3ccc(C(F)(F)F)cc3)nc(NCCSC[C@H]3O[C@@H](n4cnc5c(N)ncnc54)[C@H](O)[C@@H]3O)c2cc1OC | < 30% |
| N=C(NCCCSC[C@H]1O[C@@H](n2cnc3c(NCCCc4ccccc4)ncnc32)[C@H](O)[C@@H]1O)Nc1ccccc1 | < 30% |
| Nc1ncnc2c1ncn2[C@@H]1O[C@H](CSCCNCc2cccc(-c3ccc(F)c(O)c3)c2)[C@@H](O)[C@H]1O | < 30% |
| Nc1ncnc2c1ncn2[C@@H]1O[C@H](CSCCCNC(=O)NCc2ccccc2)[C@@H](O)[C@H]1O | 3% |
| N=C(NCCCSC[C@H]1O[C@@H](n2cnc3c(NCCCc4ccccc4)ncnc32)[C@H](O)[C@@H]1O)NC1CCC1 | < 30% |
| Nc1ncnc2c1ncn2[C@@H]1O[C@H](CSCCNC(=O)NCCCc2ccccc2)[C@@H](O)[C@H]1O | 3% |
| Nc1ncnc2c1ncn2[C@@H]1O[C@H](CSCCNC(=O)NCc2ccc(-c3cccc(O)c3)cc2)[C@@H](O)[C@H]1O | 3% |
| COc1cc2nc(-c3ccc(O)cc3)nc(NCCSC[C@H]3O[C@@H](n4cnc5c(N)ncnc54)[C@H](O)[C@@H]3O)c2cc1OC | < 30% |
| N=C(NCCCN)NCCCSC[C@H]1O[C@@H](n2cnc3c(NCCCc4ccccc4)ncnc32)[C@H](O)[C@@H]1O | < 30% |
| Nc1ncnc2c1ncn2[C@@H]1O[C@H](CSCCOc2ccc(-c3ccc(F)cc3)cc2)[C@@H](O)[C@H]1O | < 30% |
| Nc1ncnc2c1ncn2[C@@H]1O[C@H](CSCCNC(=O)NCc2ccccc2)[C@@H](O)[C@H]1O | > 50% |
| Nc1ncnc2c1ncn2[C@@H]1O[C@H](CSCCCNCc2cccc(-c3cccc4cn[nH]c34)c2)[C@@H](O)[C@H]1O | < 30% |
| Nc1ncnc2c1ncn2[C@@H]1O[C@H](CSCCNC(=O)Nc2ccccc2)[C@@H](O)[C@H]1O | > 50% |
| COc1cc2nc(-c3ccc(N)cc3)nc(NCCSC[C@H]3O[C@@H](n4cnc5c(N)ncnc54)[C@H](O)[C@@H]3O)c2cc1OC | < 30% |
| Nc1ncnc2c1ncn2[C@@H]1O[C@H](CSCCCNCc2cccc(-c3ccc(F)c(O)c3)c2)[C@@H](O)[C@H]1O | < 30% |
| Nc1ncnc2c1ncn2[C@@H]1O[C@H](CSCCNC(=O)NCc2ccc(-c3ccc(O)cc3)cc2)[C@@H](O)[C@H]1O | 3% |
| N=C(NCCCO)NCCCSC[C@H]1O[C@@H](n2cnc3c(NCCCc4ccccc4)ncnc32)[C@H](O)[C@@H]1O | < 30% |
| COc1cc2nc(-c3cccc(F)c3)nc(NCCSC[C@H]3O[C@@H](n4cnc5c(N)ncnc54)[C@H](O)[C@@H]3O)c2cc1OC | < 30% |
| Nc1ncnc2c1ncn2[C@@H]1O[C@H](CSCCNCc2cccc(-c3ccc(Cl)cc3)c2)[C@@H](O)[C@H]1O | < 30% |
| N=C(NCCCSC[C@H]1O[C@@H](n2cnc3c(NCCCc4ccccc4)ncnc32)[C@H](O)[C@@H]1O)NCCCc1ccccc1 | < 30% |
| Nc1ncnc2c1ncn2[C@@H]1O[C@H](CSCCCNC(=O)NCCCc2ccccc2)[C@@H](O)[C@H]1O | 3% |
